Listing of entries alongside the reported MIC.
- Tested on: S. aureus SG 511
- assay-protocol: MIC, agar incorporation method
- Type: cell-based, Staphylococcus aureus
- stated-conditions: Staphylococcus aureus, SG511
reported-endpoint: MIC (µg/mL)

[[record]]
compound = "CN[C@H](CC(C)C)C(=O)N[C@H]1C(=O)N[C@@H](CC(N)=O)C(=O)N[C@H]2C(=O)N[C@H]3C(=O)N[C@H](C(=O)N[C@H](C(=O)O)c4cc(O)cc(O)c4-c4cc3ccc4O)[C@H](O)c3ccc(c(Cl)c3)Oc3cc2cc(c3O[C@@H]2O[C@H](CO)[C@@H](O)[C@H](O)[C@H]2O[C@H]2C[C@](C)(N)[C@H](O)[C@H](C)O2)Oc2ccc(cc2Cl)[C@H]1O [Vancomycin, reference compound]"
reported_endpoint = "MIC"
recorded_result = 0.5

[[record]]
compound = "O=C(NC[C@H]1CN(c2ccc(N3CCN(c4ccc([N+](=O)[O-])s4)CC3)c(F)c2)C(=O)O1)C(F)F"
reported_endpoint = "MIC"
recorded_result = 0.25

[[record]]
compound = "CC(=O)NC[C@H]1CN(c2ccc(N3CCOCC3)c(F)c2)C(=O)O1 [Linezolid, reference compound]"
reported_endpoint = "MIC"
recorded_result = 2

[[record]]
compound = "CC(=O)NC[C@H]1CN(c2ccc(N3CCN(c4ccc([N+](=O)[O-])s4)CC3)c(F)c2)C(=O)O1"
reported_endpoint = "MIC"
recorded_result = 0.125


###

- Tested on: S. pneumoniae 1256
- assay-protocol: MIC, agar incorporation method
- Format: cell-based, Streptococcus pneumoniae
- stated-conditions: Streptococcus pneumoniae; S. No. 56, S. pneumoniae 1256; read-out: MIC
reported-endpoint: MIC (µg/mL)

[[record]]
query_smiles = "CC(=O)NC[C@H]1CN(c2ccc(N3CCN(c4ccc([N+](=O)[O-])s4)CC3)c(F)c2)C(=O)O1"
operator = "="
recorded_result = 0.25

[[record]]
query_smiles = "CC(=O)NC[C@H]1CN(c2ccc(N3CCN(c4ccc(C=O)s4)CC3)c(F)c2)C(=O)O1"
operator = "<"
recorded_result = 0.25

[[record]]
query_smiles = "CC(=O)NC[C@H]1CN(c2ccc(N3CCN(c4ccc([N+](=O)[O-])o4)CC3)c(F)c2)C(=O)O1"
operator = "="
recorded_result = 4

[[record]]
query_smiles = "CC(=O)NC[C@H]1CN(c2ccc(N3CCN(c4ccc(C=O)o4)CC3)c(F)c2)C(=O)O1"
operator = "="
recorded_result = 0.5


###

- Test system: S. aureus (MRSA 33) Cipro R
- assay-protocol: MIC, agar incorporation method
- Type: cell-based, Staphylococcus aureus
- stated-conditions: Staphylococcus aureus; S. No. 7, S. aureus (MRSA 33) Cipro R; read-out: MIC
reported-endpoint: MIC (µg/mL)

[[record]]
molecule = "CC(=O)NC[C@H]1CN(c2ccc(N3CCN(c4ccc(C=O)s4)CC3)c(F)c2)C(=O)O1 [Compound No. 2]"
recorded_result = 0.5

[[record]]
molecule = "CC(=O)NC[C@H]1CN(c2ccc(N3CCN(c4ccc([N+](=O)[O-])s4)CC3)c(F)c2)C(=O)O1 [Compound No. 1]"
recorded_result = 0.25

[[record]]
molecule = "CC(=O)NC[C@H]1CN(c2ccc(N3CCN(c4ccc([N+](=O)[O-])o4)CC3)c(F)c2)C(=O)O1 [Compound No. 4]"
recorded_result = 8

[[record]]
molecule = "CC(=O)NC[C@H]1CN(c2ccc(N3CCN(c4ccc(C=O)o4)CC3)c(F)c2)C(=O)O1 [Compound No. 3]"
recorded_result = 0.5


From: patent US20060293307A1
